B1: SNAP91 (parent)
chain: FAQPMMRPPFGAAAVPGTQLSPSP

Variants of: B1
Assay: protein stability index of a GFP-peptide fusion (GPS, HEK-293T) (PSI 1-6); higher = more stable;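 also: lentivirally expressed fusions sorted by FACS into six bins by GFP to DsRed ratio, PSI derived from sequencing read proportions per bin multiplied by bin number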
Conditions: c terminus: a fixed tail appended
observation.type: protein stability index
Returns: the value as a bare number; no unit string appended.

Please look at this variant and report its protein stability index: "FALPMMRPPFGAAAVPGTQLSPSP" 3.01

Please look at this variant and report its protein stability index: "FAQPMMRTPFGAAAVPGTQLSPSP" 3.02

Please look at this variant and report its protein stability index: "FAQPMMRMPFGAAAVPGTQLSPSP" 3.01
